- assay.target: T1, RSV prefusion F (preF), subtype B (respiratory syncytial virus subtype B)
- T1 construct: also called Prefusion subtype B
- test: BLI, IgG
test.readout: pKd
The value called pKd is obtained by taking minus log10 of the concentration in mol/L.

These recorded examples may help you get a feel for the data.
INSERT INTO assay_data (binder, test_readout, numeric_result) VALUES
  ('ADI-25480 (antibody, V domains shown, full-length IgG; also called Ab 430) VH: EVQLVESGGGLVKPGGSLRLSCAASGFTFSSYSMNWVRQAPGKGLEWVSSISSSSSYIYYADSVKGRFTISRDNAKNSLYLQMNSLRAEDTAVYYCARGGYSYGAYYYYYMDVWGKGTTVTVSS VL: QSVLTQPPSVSGAPGQRVTISCTGSSSNIGAGYDVHWYQQLPGTAPKLLIYGNSNRPSGVPDRFSGSKSGTSASLAITGLQAEDEADYYCQSYDSSLSGYWVFGGGTKVTVL', 'pKd', 8.37),
  ('ADI-19483 (antibody, V domains shown, full-length IgG) VH: QVQLVQSGAEVKKPGESLKISCKGSGYSFTTYWIGWVRQMPGKGLEWMGIIFPGDSDTRYSPSFQGQVTISADKSISTAYLQWSSLKASDTAMYFCARSAFPFGFDIWGQGTMVTVSS VL: SYVLTQPHSVSESPGKTVTISCTRSSGSIASNYVQWYQQRPGSSPTTVIYEDHQRPSGVPDRFSGSIDSSSNSASLTISGLQTEDEADYYCQSYGSGNPWVFGGGTKVTVL', 'pKd', 8.75),
  ('ADI-24814 (antibody, V domains shown, full-length IgG) VH: EVQLLESGGGVVQPGRSLRLSCAASGFTFNSYTMHWVRQAPGKGLEWVAVISYDGSNKYYADSVKGRFTISRDNSKNTLYLQMNSLRAEDTAVYYCARGRPYDFWSGYYTDYYYYMDVWGKGTTVTVSS VL: EIVLTQSPGTLSLSPGERATLSCRASQSVYSNYLAWYQQKPGQAPRLLIYGASSRATGIPDRFSGSGSGTDFTLTISRLEPEDFAVYYCQQCGSSWTFGQGTKVEIK', 'pKd', 8.62),
  ('ADI-14358 (antibody, V domains shown, full-length IgG; also called Ab 26) VH: QVQLVQSGGGLVKPGGSLRLSCVASGFTFSDYYMTWIRQAPGKGLEWVSYISGSSAYTIYADSVKGRFTISRDNAKNSLYLQMNGLRAEDTAVYYCARVSWVRSLDSWGQGTLVTVSS VL: QSALTQPASVSGSPGQSITISCTGSTSDVGLYNYVSWYQLHPGKAPKLIIYDVRHRPSGVSDRFSASKSGNTASLTISGLQAEDEADYYCCSYTSSSTYVFGSGTQLTVL', 'pKd', 7.22);

Entry ADI-14366 (antibody, V domains shown, full-length IgG; also called Ab 34) VH: QVQLVQSGTEVKKPGASVKVSCKASGYTFNMYGVSWVRQAPGQGLEWMGWISAYNGNTNYAQKFQGRVTMTIDTSTTTAYMELRSLRSDDTAMYYCARDFQAEEPLSNWFDPWGQGTLVTVSS VL: DIVMTQTPSSLSASVGDRVIITCRASQSISRYINWYQKKPGKAPKFLIYAVSSLGSGVPSRFSGSGSGTDFTLTISSLQPEDFATYYCQQSYSTPFTFGPGTKVDIK has what pKd? 7.74
